I'd be grateful if you could share measured % cell viability (AL1) for these entries.
Target: HER2 on the surface of N87 gastric cancer cells (human, UniProt P04626 23-1255)
Assay: cell-based or functional assay
Please don't drop the unit; write it after the number.

{"columns": ["binder", "recorded result"],
 "data": [
  ["31YCM#3 source scFv (scFv) DIQMTQSPSSLSASVGDRVTITCKSNQNLLISGNQWTFLNWYQQKPGKAPKLLIYDVSRLYSGVPSRFSGSGSGTDFTLTISSLQPEDFATYYCYQGSDFPGTFGQGTKVEIKREVQLVESGGGLVQPGGSLRLSCKASGYTFARSGMHWVRQAPGKGLEWVAGISPNYGLTHYADSVKGRFTISADTSKNTAYLQMNSLRAEDTAVYYCARGFGVLDYWGQGTLVTVSSASAAA", "96.4%"],
  ["30CHS-41 source scFv (scFv) DIQMTQSPSSLSASVGDRVTITCKSNQNLLDSGHQRTYLNWYQQKPGKAPKLLIYHTSLLYSGVPSRFSGSGSGTDFTLTISSLQPEDFATYYCSQTFRHPGTFGQGTKVEIKREVQLVESGGGLVQPGGSLRLSCKASGYTFTHWGMHWVRQAPGKGLEWVARINPYYGLTHYADSVKGRFTISADTSKNTAYLQMNSLRAEDTAVYYCARGHWLDYWGQGTLVTVSSASAAA", "77.6%"]
]}

Please look at the following binder next.
Task: Would you kindly share the measured % cell viability (AL1) for 31YCM#5 source scFv (scFv) DIQMTQSPSSLSASVGDRVTITCKSNQNLLDSHGWTYLHWYQQKPGKAPKLLIYDASNLYSGVPSRFSGSGSGTDFTLTISSLQPEDFATYYCSQSYRLPYTFGQGTKVEIKREVQLVESGGGLVQPGGSLRLSCKASGYTFGGSYMHWVRQAPGKGLEWVARIYPHYGYTYYADSVKGRFTISADTSKNTAYLQMNSLRAEDTAVYYCARGDDHFDYWGQGTLVTVSSASAAA ?
Result: 89.5%
